Recorded log10 IC50, one value per entry.
assay: Inhibition of bovine recombinant PI3Kgamma expressed in baculovirus-infected Sf21 cells; design: species or system Bos taurus
Log scale reminder: IC50 in µM, then log10 taken.

INSERT INTO results (smiles_repr, measure_name, recorded_measurement) VALUES
  ('COc1ccccc1-c1nc(-c2cc3cc(C)ccc3[nH]c2=O)no1', 'log10 IC50', 1.88),
  ('O=C(CCn1c(=O)oc2cc(Cl)ccc21)Nc1ccccc1', 'log10 IC50', 0.78),
  ('O=c1oc2cc(O)ccc2cc1-c1nc2ccccc2s1', 'log10 IC50', 1.08),
  ('Cc1ccc2cc3c(OC(=O)COc4ccccc4)nn(C)c3nc2c1', 'log10 IC50', 1.20),
  ('COC(=O)c1ccc(CSc2ncnc3sc(C)c(C)c23)o1', 'log10 IC50', 1.85);

Query compound follows.
Q) log10 IC50 lookup needed for `COc1cccc(-c2nc(-c3cc4cc(OC)ccc4[nH]c3=O)no2)c1` , thanks.
A) 0.60

====

The following compounds are shown together with reported IC50 values.
biological target: Phosphatidylinositol 4,5-bisphosphate 3-kinase catalytic subunit beta isoform (Homo sapiens); experiment: Inhibition of human recombinant PI3Kbeta expressed in baculovirus-infected Sf21 cells
Sequence (P42338 whole entry, canonical isoform): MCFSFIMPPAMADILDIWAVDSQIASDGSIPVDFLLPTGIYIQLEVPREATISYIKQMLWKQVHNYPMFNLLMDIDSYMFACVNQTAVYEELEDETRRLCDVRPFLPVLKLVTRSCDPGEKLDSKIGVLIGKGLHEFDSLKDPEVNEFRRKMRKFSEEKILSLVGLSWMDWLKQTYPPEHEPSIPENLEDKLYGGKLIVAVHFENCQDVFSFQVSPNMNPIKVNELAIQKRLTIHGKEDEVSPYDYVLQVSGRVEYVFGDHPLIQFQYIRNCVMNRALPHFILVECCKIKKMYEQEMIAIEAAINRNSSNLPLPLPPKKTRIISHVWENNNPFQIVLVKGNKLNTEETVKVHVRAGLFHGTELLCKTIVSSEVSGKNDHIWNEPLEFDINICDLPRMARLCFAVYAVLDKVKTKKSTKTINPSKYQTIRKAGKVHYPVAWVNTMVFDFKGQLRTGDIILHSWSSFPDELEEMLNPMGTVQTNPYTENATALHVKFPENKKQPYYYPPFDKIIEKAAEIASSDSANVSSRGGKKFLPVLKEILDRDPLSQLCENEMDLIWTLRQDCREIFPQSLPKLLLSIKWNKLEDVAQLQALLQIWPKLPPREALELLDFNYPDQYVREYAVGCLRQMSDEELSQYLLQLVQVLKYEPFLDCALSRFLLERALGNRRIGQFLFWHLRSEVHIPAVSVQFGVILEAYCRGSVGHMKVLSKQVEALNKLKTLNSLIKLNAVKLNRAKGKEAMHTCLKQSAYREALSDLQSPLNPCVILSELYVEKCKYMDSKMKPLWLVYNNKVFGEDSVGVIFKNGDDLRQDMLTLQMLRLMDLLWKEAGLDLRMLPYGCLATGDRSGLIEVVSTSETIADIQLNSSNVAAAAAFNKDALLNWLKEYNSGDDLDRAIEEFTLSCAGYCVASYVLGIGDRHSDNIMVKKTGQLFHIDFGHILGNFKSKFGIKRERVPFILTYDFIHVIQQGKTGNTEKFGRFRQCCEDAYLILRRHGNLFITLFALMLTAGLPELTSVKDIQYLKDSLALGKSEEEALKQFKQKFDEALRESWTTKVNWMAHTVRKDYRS
A number alone suffices; assume µM.

Look over these answered cases.
INSERT INTO assay_data (smiles_repr, measure_name, units_of_measure, recorded_measurement) VALUES
  ('COc1cccc(-c2nc(-c3cc4cc(OC)ccc4[nH]c3=O)no2)c1', 'IC50', 'µM', 3),
  ('O=c1oc2cc(O)ccc2cc1-c1nc2ccccc2s1', 'IC50', 'µM', 14);

Q) Field request: IC50 | item: `O=C(CCn1c(=O)oc2cc(Cl)ccc21)Nc1ccccc1`
A) 12

====

Let's look at some molecules and their measured pIC50.
molecular target: Phosphatidylinositol 4,5-bisphosphate 3-kinase catalytic subunit delta isoform (Homo sapiens, UniProt O00329); assay: Inhibition of recombinant PI3Kdelta expressed in baculovirus-infected Sf21 cells
Sequence (O00329 whole entry, canonical isoform): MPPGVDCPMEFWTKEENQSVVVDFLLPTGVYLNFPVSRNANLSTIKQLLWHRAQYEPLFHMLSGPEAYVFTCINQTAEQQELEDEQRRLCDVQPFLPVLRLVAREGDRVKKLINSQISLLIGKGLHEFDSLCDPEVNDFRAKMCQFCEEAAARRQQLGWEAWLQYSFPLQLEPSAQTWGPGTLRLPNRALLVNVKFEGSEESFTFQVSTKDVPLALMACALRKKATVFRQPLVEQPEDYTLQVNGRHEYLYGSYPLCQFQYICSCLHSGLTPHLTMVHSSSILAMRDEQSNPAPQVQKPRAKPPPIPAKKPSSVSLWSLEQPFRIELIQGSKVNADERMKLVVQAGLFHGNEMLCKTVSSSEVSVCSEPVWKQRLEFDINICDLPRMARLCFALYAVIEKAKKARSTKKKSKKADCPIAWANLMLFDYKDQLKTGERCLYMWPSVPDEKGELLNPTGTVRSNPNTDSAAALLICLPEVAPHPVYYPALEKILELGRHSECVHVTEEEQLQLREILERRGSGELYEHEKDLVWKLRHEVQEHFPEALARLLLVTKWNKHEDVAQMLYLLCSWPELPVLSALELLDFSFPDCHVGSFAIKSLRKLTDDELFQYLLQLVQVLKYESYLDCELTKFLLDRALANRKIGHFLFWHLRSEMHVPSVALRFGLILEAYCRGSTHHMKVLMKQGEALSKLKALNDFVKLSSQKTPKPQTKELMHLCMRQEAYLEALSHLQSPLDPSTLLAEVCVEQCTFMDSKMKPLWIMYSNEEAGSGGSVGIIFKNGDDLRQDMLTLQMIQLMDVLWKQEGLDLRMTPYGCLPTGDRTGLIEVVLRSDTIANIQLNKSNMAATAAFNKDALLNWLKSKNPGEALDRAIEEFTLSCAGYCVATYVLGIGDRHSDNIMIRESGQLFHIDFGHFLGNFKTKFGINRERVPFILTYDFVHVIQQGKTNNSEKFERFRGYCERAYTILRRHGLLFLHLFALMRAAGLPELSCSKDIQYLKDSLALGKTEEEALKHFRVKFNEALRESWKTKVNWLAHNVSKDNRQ
Interpret pIC50 as the negative base-10 log of the concentration measured in mol/L.

INSERT INTO measurements (smiles_repr, measure_name, recorded_measurement) VALUES
  ('Cc1ccc2cc3c(OC(=O)COc4ccccc4)nn(C)c3nc2c1', 'pIC50', 4.33),
  ('O=c1oc2cc(O)ccc2cc1-c1nc2ccccc2s1', 'pIC50', 5.40);

--- query ---
Q) Entry `COc1cccc(-c2nc(-c3cc4cc(OC)ccc4[nH]c3=O)no2)c1` has what pIC50?
A) 6.05

====

Here, each record is paired with measured log10 of IC50 data.
biological target: Phosphatidylinositol 4,5-bisphosphate 3-kinase catalytic subunit alpha isoform (Mus musculus, UniProt P42337); experiment: Inhibition of mouse recombinant PI3Kalpha expressed in baculovirus-infected Sf21 cells
Sequence (P42337 whole entry, canonical isoform): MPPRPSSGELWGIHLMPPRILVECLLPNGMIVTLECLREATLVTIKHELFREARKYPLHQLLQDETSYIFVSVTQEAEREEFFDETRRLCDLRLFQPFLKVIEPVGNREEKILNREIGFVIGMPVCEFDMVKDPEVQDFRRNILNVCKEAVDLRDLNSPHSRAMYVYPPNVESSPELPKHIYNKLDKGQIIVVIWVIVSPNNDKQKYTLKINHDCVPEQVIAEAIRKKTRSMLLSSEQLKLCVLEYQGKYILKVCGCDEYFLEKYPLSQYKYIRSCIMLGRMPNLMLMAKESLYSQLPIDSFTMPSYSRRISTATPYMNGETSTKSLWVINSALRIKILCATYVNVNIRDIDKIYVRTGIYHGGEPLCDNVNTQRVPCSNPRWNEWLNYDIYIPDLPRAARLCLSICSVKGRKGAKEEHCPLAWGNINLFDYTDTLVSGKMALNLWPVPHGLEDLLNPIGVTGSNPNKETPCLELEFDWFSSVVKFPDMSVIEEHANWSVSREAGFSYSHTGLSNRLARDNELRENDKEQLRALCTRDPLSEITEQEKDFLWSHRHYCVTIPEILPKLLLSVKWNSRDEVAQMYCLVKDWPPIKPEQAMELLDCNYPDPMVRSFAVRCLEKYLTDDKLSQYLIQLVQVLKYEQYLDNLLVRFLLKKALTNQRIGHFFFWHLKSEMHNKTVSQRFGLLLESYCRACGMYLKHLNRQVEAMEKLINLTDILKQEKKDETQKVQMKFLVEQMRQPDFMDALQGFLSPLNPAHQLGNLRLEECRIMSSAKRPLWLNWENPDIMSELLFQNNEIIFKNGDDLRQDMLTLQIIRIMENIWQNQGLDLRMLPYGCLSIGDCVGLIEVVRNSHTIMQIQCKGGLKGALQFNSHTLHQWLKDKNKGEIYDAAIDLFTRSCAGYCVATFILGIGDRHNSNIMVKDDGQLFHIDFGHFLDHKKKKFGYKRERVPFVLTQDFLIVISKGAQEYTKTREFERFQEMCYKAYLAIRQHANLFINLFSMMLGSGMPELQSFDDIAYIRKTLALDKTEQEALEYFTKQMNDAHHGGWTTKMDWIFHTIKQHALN
Hi team, quick reminder: these entries are log10 of IC50 (µM).

Guide cases for log10 of IC50, answers given:
INSERT INTO measurements (smiles_repr, recorded_measurement) VALUES
  ('COc1cccc(-c2nc(-c3cc4cc(OC)ccc4[nH]c3=O)no2)c1', -0.05),
  ('COc1nc(-c2ccccc2)ccc1-c1noc(-c2ccncc2)n1', 1.89),
  ('O=C(CCn1c(=O)oc2cc(Cl)ccc21)Nc1ccccc1', 1.28),
  ('Cc1ccc2cc3c(OC(=O)COc4ccccc4)nn(C)c3nc2c1', 1.58);

Could you now look at the following compound, please?
Q) # log10 of IC50 lookup, item `O=c1oc2cc(O)ccc2cc1-c1nc2ccccc2s1`
A) 0.48

Where do these numbers come from? They come from ChEMBL document CHEMBL1156056.
